Below, each entry is listed alongside its reported pEC50.
molecular target: recombinant F508del V470 CFTR in Fischer rat thyroid (FRT) cells (Homo sapiens, UniProt P13569, DEL508-508); construct: expressed in transfected cells; experiment: FRT ion flux assay of F508del CFTR potentiation; type: cell-based; settings: FRT cells expressing F508del V470 CFTR, forskolin 20 uM, 27° C. pre-incubation
pEC50 here: minus log base 10 of the concentration, concentration in moles per litre.

                                   molecule  measurement_type  recorded_result
0  CC(c1cc(-c2ccccc2F)no1)n1cc(-c2ccc(Cl)cc2)c2c(N)ncnc21 (single isomer, unassigned; enantiomer 2) [Example 182]             pEC50             6.33

Fill in the blank: the reported pEC50 of CCC(c1cn(-c2ccccc2)nn1)n1cc(-c2ccc(OC)nc2)c2c(N)ncnc21 (single isomer, unassigned; enantiomer 1) [Example 125] is ____.
6.40

Which pEC50 reading was recorded for the molecule Cn1ncc2ccc(-c3cn(Cc4cn(-c5ccccc5F)nn4)c4ncnc(N)c34)cc21 ?
6.49

Look at this molecule and give its reported pEC50. CC(c1cn(-c2ccccc2F)nn1)n1cc(-c2ccc(OC3CC3)nc2)c2c(N)ncnc21 (stereo not drawn) [Example 213]
7.23

Name the reported pEC50 value associated with the molecule CCC(c1cnn(-c2ccccc2F)c1)n1c(C#N)c(-c2cnc(C(F)(F)F)nc2)c2c(N)ncnc21 (single isomer, unassigned) [Example 4]
9.21

Could you tell me which pEC50 is on file for CC(c1cn(-c2ccccc2F)nn1)n1cc(-c2cc[nH]n2)c2c(N)ncnc21 (single isomer, unassigned; enantiomer 2) [Example 122] ?
5.98

====

biological target: CFTR in F508del/F508del primary CF hBE cells (Homo sapiens, UniProt P13569, DEL508-508); construct: Primary cystic fibrosis human bronchial epithelial (CF hBE) cells were expanded and cultured; endogenous in cells; experiment: Ussing chamber electrophysiology assay of CFTR potentiation in F508del/F508del CF bronchial epithelial cells (27° C.)
Sequence (P13569 with tags, fused parts or gaps DEL508-508): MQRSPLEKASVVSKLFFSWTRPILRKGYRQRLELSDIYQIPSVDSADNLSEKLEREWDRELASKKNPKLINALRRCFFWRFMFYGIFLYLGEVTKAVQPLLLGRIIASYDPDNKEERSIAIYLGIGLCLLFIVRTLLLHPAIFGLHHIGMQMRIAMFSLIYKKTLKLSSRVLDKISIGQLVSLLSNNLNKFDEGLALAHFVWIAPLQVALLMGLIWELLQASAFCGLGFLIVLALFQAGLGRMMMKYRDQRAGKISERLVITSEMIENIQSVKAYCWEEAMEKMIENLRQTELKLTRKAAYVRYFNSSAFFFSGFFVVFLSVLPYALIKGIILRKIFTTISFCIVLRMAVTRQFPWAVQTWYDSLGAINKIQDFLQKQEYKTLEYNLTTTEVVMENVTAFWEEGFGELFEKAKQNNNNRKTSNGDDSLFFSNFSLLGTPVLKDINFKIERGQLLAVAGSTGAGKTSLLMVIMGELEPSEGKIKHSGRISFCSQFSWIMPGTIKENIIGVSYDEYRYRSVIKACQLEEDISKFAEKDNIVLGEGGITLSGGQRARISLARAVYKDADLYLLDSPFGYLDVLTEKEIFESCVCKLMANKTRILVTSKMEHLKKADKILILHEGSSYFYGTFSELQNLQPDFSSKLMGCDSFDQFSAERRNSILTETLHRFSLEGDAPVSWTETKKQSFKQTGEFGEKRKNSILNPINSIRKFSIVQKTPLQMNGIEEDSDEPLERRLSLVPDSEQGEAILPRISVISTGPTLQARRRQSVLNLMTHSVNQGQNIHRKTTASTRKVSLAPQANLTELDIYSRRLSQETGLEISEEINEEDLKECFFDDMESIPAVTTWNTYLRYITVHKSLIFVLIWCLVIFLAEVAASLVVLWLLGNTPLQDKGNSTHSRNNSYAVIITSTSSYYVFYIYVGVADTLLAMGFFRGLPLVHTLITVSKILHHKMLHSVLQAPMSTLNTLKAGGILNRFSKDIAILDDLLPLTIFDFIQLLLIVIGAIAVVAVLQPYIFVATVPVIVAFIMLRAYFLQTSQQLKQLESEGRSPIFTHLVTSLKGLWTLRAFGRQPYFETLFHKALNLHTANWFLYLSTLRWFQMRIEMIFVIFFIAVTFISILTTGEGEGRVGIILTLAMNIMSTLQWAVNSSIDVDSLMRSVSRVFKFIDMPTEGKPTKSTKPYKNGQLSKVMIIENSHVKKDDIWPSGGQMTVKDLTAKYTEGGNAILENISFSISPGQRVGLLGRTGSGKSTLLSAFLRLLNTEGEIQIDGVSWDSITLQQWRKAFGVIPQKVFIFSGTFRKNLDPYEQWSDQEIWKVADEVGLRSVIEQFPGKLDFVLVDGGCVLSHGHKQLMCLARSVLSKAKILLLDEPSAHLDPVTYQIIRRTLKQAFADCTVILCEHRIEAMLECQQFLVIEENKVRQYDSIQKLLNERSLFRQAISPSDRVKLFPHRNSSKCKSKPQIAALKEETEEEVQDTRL
measurement.type: EC50 (µM)
Unit µM implied. Number only.

Recorded EC50, per entry:
molecule	measurement.type	unit.descriptor	recorded.result
CCC(c1cn(-c2ccc(F)cc2F)nn1)n1cc(-c2cc(F)cnc2OC)c2c(N)ncnc21 (single isomer, unassigned; enantiomer 1) [Example 163]	EC50	µM	0.0972
Nc1ncnc2c1c(-c1ccc(Cl)cc1)cn2Cc1nnc(-c2ccccc2)[nH]1	EC50	µM	0.551

So what's the measured EC50 for this one? CC(c1cnc(-c2ccccc2F)[nH]1)n1cc(-c2ccc3[nH]ncc3c2)c2c(N)ncnc21 (stereo not drawn)
1.32

====

molecular target: recombinant F508del V470 CFTR in Fischer rat thyroid (FRT) cells (Homo sapiens, UniProt P13569, DEL508-508); construct: expressed in transfected cells; experiment: FRT ion flux assay of F508del CFTR potentiation; format: cell-based; conditions: FRT cells expressing F508del V470 CFTR, forskolin 20 uM, 27° C. pre-incubation
measurement.type: pEC50
For clarity, pEC50 is expressed as the negative log10 of concentration in mol/L.

Entry CCC(c1cn(-c2ccc(F)cc2F)nn1)n1cc(-c2cnc(C(F)F)nc2)c2c(N)ncnc21 (single isomer, unassigned; enantiomer 1) [Example 167] : reported pEC50 = ?
7.60

# input compound: Nc1ncnc2c1c(-c1ccc(Cl)cc1)cn2Cc1ncc(-c2ccccc2F)[nH]1 ; wanted: its pEC50
5.43

Entry under review: CC(c1cn(-c2ccccc2F)nn1)n1cc(C2CCC2)c2c(N)ncnc21 (single isomer, unassigned) [Example 110] . Reported pEC50?
8.58
